TEST SYSTEM: hemagglutinin (HA) of influenza virus H3N2 A/Wisconsin/67/05 (influenza A virus)
MEASUREMENT DESCRIPTION: cell-based or functional assay
Documented average neutralization titer across a set of binders
MEASUREMENT TYPE: average neutralization titer (nM)

- BINDER: "MD2317 (bispecific antibody) EVQLVESGGGLVQPGGSLRLSCAVSISIFDIYAMDWYRQAPGKQRDLVATSFRDGSTNYADSVKGRFTISRDNAKNTLYLQMNSLKPEDTAVYLCHVSLYRDPLGVAGGMGVYWGKGALVTVSSGGGGSGGGGSEVQLVESGGGLVQAGDSLRISCAASGRTLSIYSMGWFRQAPGKEREFVATIGWNSGRTFYPDSLKGRFTISRDNARNTLYLQMNNLRPEDTAVYYCAAAKGPLRLSSQADYWGQGTQVTVSSGGGGSGGGGSEVQLVESGGGLVQPGGSLRLSCAATGFTLENKAIGWFRQTPGSEREGVLCISKSGSWTYYTDSMRGRFTISRDNAENTVYLQMDSLKPEDTAVYYCATTTAGGGLCWDGTTFSRLASSWGQGTQVTVSS"
  MEASUREMENT TYPE: "average neutralization titer"
  COMPARATOR: "="
  READOUT VALUE: 12.8
- BINDER: "MD2320 (bispecific antibody) EVQLVESGGGLVQAGDSLRISCAASGRTLSIYSMGWFRQAPGKEREFVATIGWNSGRTFYPDSLKGRFTISRDNARNTLYLQMNNLRPEDTAVYYCAAAKGPLRLSSQADYWGQGTQVTVSSGGGGSGGGGSEVQLVESGGGLVQPGGSLRLSCAVSISIFDIYAMDWYRQAPGKQRDLVATSFRDGSTNYADSVKGRFTISRDNAKNTLYLQMNSLKPEDTAVYLCHVSLYRDPLGVAGGMGVYWGKGALVTVSSGGGGSGGGGSEVQLVESGGGLVQPGGSLRLSCAATGFTLENKAIGWFRQTPGSEREGVLCISKSGSWTYYTDSMRGRFTISRDNAENTVYLQMDSLKPEDTAVYYCATTTAGGGLCWDGTTFSRLASSWGQGTQVTVSS"
  MEASUREMENT TYPE: "average neutralization titer"
  COMPARATOR: ">"
  READOUT VALUE: 1000
- BINDER: "MD2305 (bispecific antibody) EVQLVESGGGLVQPGGSLRLSCAVSISIFDIYAMDWYRQAPGKQRDLVATSFRDGSTNYADSVKGRFTISRDNAKNTLYLQMNSLKPEDTAVYLCHVSLYRDPLGVAGGMGVYWGKGALVTVSSGGGGSGGGGSEVQLVESGGGLVQPGGSLRLSCAATGFTLENKAIGWFRQTPGSEREGVLCISKSGSWTYYTDSMRGRFTISRDNAENTVYLQMDSLKPEDTAVYYCATTTAGGGLCWDGTTFSRLASSWGQGTQVTVSSGGGGSGGGGSEVQLVESGGGLVQPGGSLRLSCAVSISIFDIYAMDWYRQAPGKQRDLVATSFRDGSTNYADSVKGRFTISRDNAKNTLYLQMNSLKPEDTAVYLCHVSLYRDPLGVAGGMGVYWGKGALVTVSS"
  MEASUREMENT TYPE: "average neutralization titer"
  COMPARATOR: "="
  READOUT VALUE: 21.7
- BINDER: "MD2304 (bispecific antibody) EVQLVESGGGLVQPGGSLRLSCAATGFTLENKAIGWFRQTPGSEREGVLCISKSGSWTYYTDSMRGRFTISRDNAENTVYLQMDSLKPEDTAVYYCATTTAGGGLCWDGTTFSRLASSWGQGTQVTVSSGGGGSGGGGSEVQLVESGGGLVQPGGSLRLSCAVSISIFDIYAMDWYRQAPGKQRDLVATSFRDGSTNYADSVKGRFTISRDNAKNTLYLQMNSLKPEDTAVYLCHVSLYRDPLGVAGGMGVYWGKGALVTVSSGGGGSGGGGSEVQLVESGGGLVQPGGSLRLSCAVSISIFDIYAMDWYRQAPGKQRDLVATSFRDGSTNYADSVKGRFTISRDNAKNTLYLQMNSLKPEDTAVYLCHVSLYRDPLGVAGGMGVYWGKGALVTVSS"
  MEASUREMENT TYPE: "average neutralization titer"
  COMPARATOR: "="
  READOUT VALUE: 18.2
